From: patent US8927544B2

target: CCR2 (Homo sapiens); construct: expressed in transfected cells; experiment: compound-induced calcium activity on the FLIPR Tetra in HEK-Gqi5 cells stably expressing CCR2; type: cell-based
Sequence (P41597 whole entry, species assumed): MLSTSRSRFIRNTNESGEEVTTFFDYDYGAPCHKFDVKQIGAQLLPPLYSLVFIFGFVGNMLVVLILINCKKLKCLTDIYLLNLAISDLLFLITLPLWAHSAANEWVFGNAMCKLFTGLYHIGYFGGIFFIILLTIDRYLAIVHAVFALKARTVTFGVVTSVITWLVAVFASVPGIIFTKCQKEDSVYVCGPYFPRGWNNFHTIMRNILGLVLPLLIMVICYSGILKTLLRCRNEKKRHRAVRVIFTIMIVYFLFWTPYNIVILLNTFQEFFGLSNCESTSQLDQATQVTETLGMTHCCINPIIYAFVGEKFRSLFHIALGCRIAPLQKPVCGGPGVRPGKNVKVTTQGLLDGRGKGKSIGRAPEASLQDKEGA
endpoint name: IC50 (µM)
Give the value in µM but do not write µM after it.

Looking up `O=C1CCN(C(=O)c2ccc(Cl)cc2NS(=O)(=O)c2cc3ccccc3o2)CC1` , I found its IC50 recorded as 0.11

----------
Recorded CCR2 ANTAGONISM (%) by entry
target: CCR2 (Homo sapiens); construct: expressed in transfected cells; experiment: compound-induced calcium activity on the FLIPR Tetra in HEK-Gqi5 cells stably expressing CCR2; assay type: cell-based; details: HEK-Gqi5 cells stably expressing CCR2; calcium activity, FLIPR Tetra

Reference set, count: 5
- compound: "O=C(Cc1ccccc1)c1ccc(Cl)cc1NS(=O)(=O)c1cc2ccccc2o1 [Compound 17]"
  CCR2 ANTAGONISM (%): "79%"
- compound: "CO/N=C(/Cc1ccccc1)c1ccc(Cl)cc1NS(=O)(=O)c1cc2ccccc2o1 [Compound 18]"
  CCR2 ANTAGONISM (%): "76%"
- compound: "O=C(c1ccc(Cl)cc1NS(=O)(=O)c1cc2ccccc2o1)N1CCOCC1 [Compound 8]"
  CCR2 ANTAGONISM (%): "84%"
- compound: "O=S(=O)(Nc1cc(Cl)ccc1OCc1ccccc1)c1cc2ccccc2o1 [Compound 20]"
  CCR2 ANTAGONISM (%): "87%"
- compound: "O=S(=O)(Nc1cc(Cl)ccc1Sc1ccccc1)c1cc2ccccc2o1 [Compound 12]"
  CCR2 ANTAGONISM (%): "90%"

Looking up O=S(=O)(Nc1cc(F)ccc1[S+]([O-])c1ccccc1)c1cc2ccccc2o1 (centres unmarked) [Compound 28] , I found its CCR2 ANTAGONISM (%) recorded as 91%

Looking up O=C(Nc1ccccc1)c1ccc(Cl)cc1NS(=O)(=O)c1cc2ccccc2o1 [Compound 15] , I found its CCR2 ANTAGONISM (%) recorded as 95%

Looking up Cc1ccc(Sc2ccccc2)c(NS(=O)(=O)c2cc3ccccc3o2)c1 [Compound 24] , I found its CCR2 ANTAGONISM (%) recorded as 41%
